Test system: Proto-oncogene tyrosine-protein kinase receptor Ret (Homo sapiens), P07949 [V804L]
Sequence (P07949 whole entry V804L): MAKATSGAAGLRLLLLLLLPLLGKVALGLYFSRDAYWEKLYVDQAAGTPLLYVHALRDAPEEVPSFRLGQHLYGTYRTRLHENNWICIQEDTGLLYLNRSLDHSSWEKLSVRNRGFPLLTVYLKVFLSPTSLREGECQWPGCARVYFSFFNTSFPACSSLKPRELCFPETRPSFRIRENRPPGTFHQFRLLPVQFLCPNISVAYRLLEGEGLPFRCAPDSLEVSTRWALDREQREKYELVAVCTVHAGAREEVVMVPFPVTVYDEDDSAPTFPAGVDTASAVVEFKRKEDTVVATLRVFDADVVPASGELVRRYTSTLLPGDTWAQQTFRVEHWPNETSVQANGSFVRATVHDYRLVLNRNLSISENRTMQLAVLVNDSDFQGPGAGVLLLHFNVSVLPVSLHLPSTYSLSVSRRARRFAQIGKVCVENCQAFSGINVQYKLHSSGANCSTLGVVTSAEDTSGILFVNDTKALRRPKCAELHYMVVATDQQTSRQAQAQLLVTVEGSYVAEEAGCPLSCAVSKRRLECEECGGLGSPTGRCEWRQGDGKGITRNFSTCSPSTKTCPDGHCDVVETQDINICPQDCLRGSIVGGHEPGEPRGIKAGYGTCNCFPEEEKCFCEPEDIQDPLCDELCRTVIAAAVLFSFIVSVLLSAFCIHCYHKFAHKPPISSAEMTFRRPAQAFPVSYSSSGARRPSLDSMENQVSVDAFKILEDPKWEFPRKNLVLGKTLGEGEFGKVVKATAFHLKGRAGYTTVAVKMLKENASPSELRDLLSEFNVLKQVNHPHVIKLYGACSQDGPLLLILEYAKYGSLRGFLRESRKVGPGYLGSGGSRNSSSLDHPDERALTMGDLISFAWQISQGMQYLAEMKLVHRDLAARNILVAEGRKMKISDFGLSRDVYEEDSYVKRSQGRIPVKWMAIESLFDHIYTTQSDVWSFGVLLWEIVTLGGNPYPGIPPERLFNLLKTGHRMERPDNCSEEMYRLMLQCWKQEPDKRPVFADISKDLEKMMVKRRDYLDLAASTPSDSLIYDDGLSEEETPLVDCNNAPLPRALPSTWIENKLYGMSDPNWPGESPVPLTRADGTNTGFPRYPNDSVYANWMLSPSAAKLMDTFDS
Stated conditions: at 1 µM
Documented inhibition across a set of compounds
Your answer should be a plain number; it is taken to be in %.

Example cases with answers are listed next.
> print(dat)
                                item.smiles  recorded.value
1  Fc1ccc(-c2ncn(C3CCNCC3)c2-c2ccnc(Oc3ccc4c(c3)OCO4)n2)cc1            12.4
2  COC(=O)Nc1nc2ccc(Sc3ccc(NC(=O)Nc4cc(C(F)(F)F)ccc4F)cc3)cc2[nH]1              58
3  C[C@@H](Oc1cc(-n2cnc3ccc(OCC4CCN(C)CC4)cc32)sc1C(N)=O)c1ccccc1Cl            16.7
4  NC(=O)c1cc(-c2ccc(F)cc2)cc(-c2ccncc2)c1N            2.03

Now look at this one.
The reported value for CNC(=O)c1cncc(/C=C/c2c(C)cccc2C)c1 in terms of inhibition is 6.46
